Cited source: patent US4990520A

biological target: muscarinic cholinergic receptor; assay: [3H] Quinuclinyl Benzilate (3H-QNB) Binding Assay; parameters: species or system rat; conditions: rat cerebral cortex, 0.25 nM 3H-QNB, 25° C., 120 minutes, pH 7.4
Counter-ions that a name gives are not always drawn.
assay endpoint: IC50 (µM)
Numbers only, in µM.

// query // fetch muscarinic cholinergic receptor IC50 for Cl/C(=C/c1nccs1)CN1CCCCC1
// result 117

For every item in the list below, what is its measured IC50?
1. C(#Cc1cncs1)CN1CCCCC1 [hydrochloride]
2. C(#Cc1cscn1)CN1CCCCC1 [1-[3-(4-Thiazolyl)-2-propynyl]piperidine]

// result
1. 119
2. 124

Give IC50 for each listed item.
1. C[N+](C)(C)CC#Cc1cncs1
2. CN(C)CC#Cc1cncs1
3. C(#Cc1nccs1)CN1CCCCC1 [1-[3-(2-Thiazolyl)-2-propynyl]piperidine]

// result
131
765
182
